# Test system: CAPAN-1 (a BRCA-2-mutated pancreatic cancer cell line)
# TEST METHOD NOTES: Cell proliferation assay, three-day, CellTiter-Glo, CAPAN-1
# Format: cell-based
# CONDITION LABEL: Homo sapiens; CAPAN-1, 100.00 uM, replicate 2; read-out: Inh % 2
Is inhibition at 100 µM at least 80%? Then label 1. If not, label 0.

These solved cases illustrate the format of a correct answer.
{"columns": ["COMPOUND", "CLASS LABEL"],
 "data": [
  ["NC(=O)c1cccc2[nH]c(C3CCN(CCCC(=O)c4ccccc4)C3)nc12 (centres unmarked)", "label 1"],
  ["COc1ccc(C(=O)CCN2CCC(c3nc4c(C(N)=O)cccc4[nH]3)C2)cc1 (centres unmarked)", "label 0"],
  ["NC(=O)c1cccc2[nH]c(C3CCN(CCN4C(=O)c5ccccc5C4=O)C3)nc12 (centres unmarked)", "label 0"],
  ["NC(=O)c1cccc2[nH]c(C3CCN(CC(=O)c4ccccc4)C3)nc12 (centres unmarked)", "label 0"]
]}

State whether the measured inhibition at 100 µM reaches 80%, counting equality as reaching it, for NC(=O)c1cccc2[nH]c(C3CCN(CCC(=O)c4ccc(Cl)cc4)C3)nc12 (centres unmarked)
label 1

* * *

Could you please report measured inhibition at 0.0152 µM for the items listed next?
# Test system: MDA-MB-436 (a BRCA-1-mutated breast cancer cell line)
# TEST METHOD NOTES: Cell proliferation assay, three-day, CellTiter-Glo, MDA-MB-436
# Assay type: cell-based
# CONDITION LABEL: Homo sapiens, MDA-MB-436, MDA-MB-436, Conc. 0.0152 uM, replicate 2; read-out: Inh % 2
Answers are plain numbers, in %.

Observe how each entry below is paired with its result.
{"columns": ["COMPOUND", "RECORDED METRIC", "RECORDED VALUE"],
 "data": [
  ["NC(=O)c1cccc2[nH]c(C3CCN(CCC(=O)Nc4ccccc4)C3)nc12 (stereo not shown) [Compound 5cb]", "inhibition at 0.0152 µM", -10.5],
  ["NC(=O)c1cccc2[nH]c(C3CCN(CCN4C(=O)c5ccccc5C4=O)C3)nc12 (stereo not shown) [Compound 5ck]", "inhibition at 0.0152 µM", -1.8],
  ["NC(=O)c1cccc2[nH]c(C3CCN(CCC(=O)c4ccccc4)C3)nc12 (stereo not shown) [Compound 5cp]", "inhibition at 0.0152 µM", -8.4]
]}

Please look at the following compound next.
Would you mind telling me what inhibition at 0.0152 µM value was observed for COc1ccc(C(=O)CCN2CCC(c3nc4c(C(N)=O)cccc4[nH]3)C2)cc1 (stereo not shown) [Compound 5ci] ?
-7.1

* * *

Consider the following molecules; for each one, report its IC50.
# Tested on: MDA-MB-436 (a BRCA-1-mutated breast cancer cell line)
# TEST METHOD NOTES: Cell proliferation assay, three-day, CellTiter-Glo, MDA-MB-436
# Type: cell-based
# CONDITION LABEL: Homo sapiens, MDA-MB-436; 72 h, CellTiter-Glo; read-out: MDA-MB-436 IC50
# Procedure: A three-day assay was conducted. A cell suspension was prepared. Cell density was counted by an automated cell counter and then diluted to the required density, according to seeding density. 50 μL cells were seeded into 384-well plate in growth medium according to the plate map. The cells were incubated at 37 °C, 5% CO2 overnight. […] The assay plate was equilibrated to room temperature prior to measurement. […] Luminescence was recorded on the Envision system.

See these solved cases before continuing.
{"columns": ["MOLECULE", "TARGET UNDER TEST", "IC50"],
 "data": [
  ["NC(=O)c1cccc2[nH]c(C3CCN(CCCN4C(=O)c5ccccc5C4=O)C3)nc12 (stereo not drawn) [Compound 5ce]", "MDA-MB-436 (a BRCA-1-mutated breast cancer cell line)", "> 100 µM"],
  ["NCCCN1CCC(c2nc3c(C(N)=O)cccc3[nH]2)C1 (stereo not drawn) [Compound 5cl]", "MDA-MB-436 (a BRCA-1-mutated breast cancer cell line)", "> 100 µM"]
]}

Shift focus to the following entry.
Find the recorded IC50 belonging to NC(=O)c1cccc2[nH]c(C3CCN(CCCNc4ccccc4)C3)nc12 (stereo not drawn) [Compound 5ch] and report it.
> 100 µM
